Field pIC50: reported value for UniProt:P00533; entries drawn from several documents.
Scale explanation: pIC50 corresponds to minus log10 of a concentration expressed in moles per litre.

Would you please look over these solved cases?
# compound, result-type, endpoint-result
records = [
    ("CCS(=O)(=O)N1CCC(c2nc(-c3ccc(F)cc3)c(-c3ccnc(Nc4ccc(N5CCN(C)CC5)cc4)n3)s2)CC1", "pIC50", 7.28),
    ("CC(=O)/C=C/C(=O)Cc1ccc2ncnc(Nc3cccc(Br)c3)c2c1", "pIC50", 8.92),
]

I looked up COc1cc(/C=C/[N+](=O)[O-])ccc1OS(=O)(=O)c1ccc(C(=O)O)cc1 and its pIC50 for UniProt:P00533 was 5.55

Per the reported UniProt:P00533 data, CCOC(C)Oc1cc2ncnc(Nc3ccc(F)c(C#N)c3)c2c2c1OCCO2 (centres undefined) has pIC50 of 6.45

Lab entry: UniProt:P00533 assay, compound CC(C)(C)c1cc(NC(=O)Cc2ccc(Nc3ncnc4[nH]c(-c5ccc(S(C)(=O)=O)cc5)cc34)cc2)no1 , pIC50 = 4.25
